Where do the numbers come from? From paper PMC6661824.

# IC50 annotations
# Study system: α-Glucosidase from baker's yeast
# Assay details: α-Glucosidase inhibitory assay (PNP-G substrate)
# Assay type: biochemical, S. cerevisiae
# Experimental parameters: standards purchased from Sigma-Aldrich
State just the number; it will be interpreted in µM.

>>> data_value("CCCCCCCC/C=C\\CCCCCCCC(=O)OCC(COC(=O)CCCCCCC/C=C\\CCCCCCCC)OC(=O)CCCCCCC/C=C\\CCCCCCCC")
1.52

Please find the next molecule below.
stdin: Name the recorded IC50 of the molecule listed here: `CCCCCCCCCCCCCCCC(=O)OCC(COC(=O)CCCCCCCCCCCCCCC)OC(=O)CCCCCCCCCCCCCCC`
stdout: 3.2
